Every entry's value here was drawn from patent US11964971B2.

- System: MDR1-MDCK cell monolayers
- test_settings: dog, MDCK-MDR1, 120 min, 5 μM, pH 7.4
measured_endpoint: MDCK-MDR1: % Recov A-B (%)
Just the number please, in %, no unit attached.

Examples with their reported MDCK-MDR1: % Recov A-B (%) follow.
compound	measured_endpoint	result
CN(c1cnc(-c2ccc(-c3cnn(C)c3)cc2O)cn1)[C@@H]1CC2CC[C@H](N2)[C@@H]1F (single isomer, unassigned)	MDCK-MDR1: % Recov A-B (%)	45
CN(c1cnc(-c2ccc(-c3cn[nH]c3)cc2O)cn1)[C@@H]1CC2COC[C@H](N2)[C@@H]1F (single isomer, unassigned)	MDCK-MDR1: % Recov A-B (%)	90
Cc1nc(-c2ccc(-c3cnc(N(C)[C@@H]4CC5CC[C@H](N5)[C@@H]4F)cn3)c(O)c2)no1 (single isomer, unassigned)	MDCK-MDR1: % Recov A-B (%)	49
COc1cc(-c2ccc(-c3cnc(N(C)[C@H]4C[C@@H]5COCC(N5)[C@H]4F)cn3)c(O)c2)cnn1 (single isomer, unassigned)	MDCK-MDR1: % Recov A-B (%)	92
COc1cc(-c2ccc(-c3cnc(N(C)[C@H]4C[C@]5(C)CC[C@@](C)(N5)[C@H]4F)cn3)c(O)c2)cnn1	MDCK-MDR1: % Recov A-B (%)	42

Query string: Bench note: what MDCK-MDR1: % Recov A-B (%) did CN(c1cnc(-c2cc(F)c(-c3cnn(CF)c3)cc2O)cn1)[C@@H]1CC2CC[C@H](N2)[C@@H]1F (single isomer, unassigned) show?
Result string: 38

* * *

Let's look at some molecules and their measured Papp B→A at 120 min, 5 μM.
- System: MDR1
- assay_name: in vitro
- test_settings: dog, MDCK-MDR1, pH 7.4, MDCK-MDR1: Papp B-A (10^−6, cm/s)
Give just the number in ×10⁻⁶ cm/s; leave the unit off.

Some molecules with known Papp B→A at 120 min, 5 μM results, for comparison:
molecule	Papp B→A at 120 min, 5 μM [×10⁻⁶ cm/s]
CNC(=O)/C=C/c1cc(O)c(-c2cnc(N(C)[C@H]3C[C@]4(C)CC[C@@](C)(N4)[C@H]3F)cn2)cc1F	41.9
CNC(=O)c1cc(O)c(-c2cnc(N(C)[C@@H]3CC4CC[C@H](N4)[C@@H]3F)cn2)cc1F (single isomer, unassigned)	64.4
COc1cc(-c2cc(O)c(-c3cnc(N(C)[C@@H]4CC5CC[C@H](N5)[C@@H]4F)cn3)cc2F)cc(F)n1 (single isomer, unassigned)	0.8
COc1cc(-c2ccc(-c3cnc(N(C4CC4)[C@@H]4CC5CC[C@H](N5)[C@@H]4F)cn3)c(O)c2)cc(F)n1 (single isomer, unassigned)	0.71
CN(c1cnc(-c2ccc(-c3cn[nH]c3)cc2O)cn1)[C@H]1CC2CC(F)(F)[C@H](C1)N2 (single isomer, unassigned)	55.4
Cn1ccc(-c2cc(O)c(-c3cnc(N(C4CC4)[C@H]4C[C@@H]5CCC(N5)[C@H]4F)cn3)cc2F)cc1=O (single isomer, unassigned)	57.7

Now for a further molecule.
Query string: Data request, read-out Papp B→A at 120 min, 5 μM, for CN(c1cnc(-c2ccc(-c3ccn(CF)c(=O)c3)cc2O)cn1)[C@@H]1CC2CC[C@H](N2)[C@@H]1F (single isomer, unassigned)
Result string: 37.9
